Target Under Test: Poly [ADP-ribose] polymerase 1 (Homo sapiens)
Sequence (P09874 whole entry): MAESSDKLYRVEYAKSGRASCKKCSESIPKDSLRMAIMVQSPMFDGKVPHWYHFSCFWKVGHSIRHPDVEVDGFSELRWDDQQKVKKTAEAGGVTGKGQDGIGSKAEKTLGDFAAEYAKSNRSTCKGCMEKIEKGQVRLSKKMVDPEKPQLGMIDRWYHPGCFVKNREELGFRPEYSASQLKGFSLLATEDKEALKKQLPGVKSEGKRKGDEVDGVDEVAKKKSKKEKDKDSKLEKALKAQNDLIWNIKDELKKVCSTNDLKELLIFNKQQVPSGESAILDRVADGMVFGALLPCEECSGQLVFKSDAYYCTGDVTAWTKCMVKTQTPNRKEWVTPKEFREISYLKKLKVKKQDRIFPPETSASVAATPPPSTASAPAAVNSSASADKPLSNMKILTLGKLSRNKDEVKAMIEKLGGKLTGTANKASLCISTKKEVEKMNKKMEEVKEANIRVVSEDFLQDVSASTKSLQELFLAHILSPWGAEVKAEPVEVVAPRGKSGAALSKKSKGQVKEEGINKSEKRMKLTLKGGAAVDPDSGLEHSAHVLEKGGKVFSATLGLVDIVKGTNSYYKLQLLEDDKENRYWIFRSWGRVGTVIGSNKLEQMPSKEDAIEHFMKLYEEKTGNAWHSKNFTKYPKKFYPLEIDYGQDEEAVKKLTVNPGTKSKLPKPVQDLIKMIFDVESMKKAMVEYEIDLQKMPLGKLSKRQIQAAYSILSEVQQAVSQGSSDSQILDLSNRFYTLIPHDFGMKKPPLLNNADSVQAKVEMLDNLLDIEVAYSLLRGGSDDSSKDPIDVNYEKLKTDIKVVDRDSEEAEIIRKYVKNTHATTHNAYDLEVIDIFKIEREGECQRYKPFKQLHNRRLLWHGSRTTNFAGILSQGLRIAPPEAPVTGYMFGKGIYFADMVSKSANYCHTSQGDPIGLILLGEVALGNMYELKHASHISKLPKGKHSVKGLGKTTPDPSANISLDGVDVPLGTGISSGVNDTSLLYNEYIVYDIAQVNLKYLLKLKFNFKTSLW
Test Description: Inhibition of PARP-1 (unknown origin)
Experimental Readout: IC50
Returns: string containing the number followed by the unit.

(Q) Give the reported IC50 for c1cnoc1 (system: Poly [ADP-ribose] polymerase 1 (Homo sapiens)).
(A) 10 µM

* * *

System: HepG2
Test Description: Antiproliferative activity against human HepG2 cells assessed as reduction in cell viability after 24 hrs by MTT assay
Type: functional, cell-based
Test Settings: HepG2, 24 h
Experimental Readout: pIC50
FYI, pIC50 means -log10 of a concentration in mol per litre.

(Q) Suppose we examine the molecule Cc1ccccc1COc1ccc(-c2noc(C)c2-c2ccc(Cl)cc2)cc1 ; what pIC50 value has been reported?
(A) 6.11
